The origin of these recorded values is PubChem BioAssay (NCI).

# System: MDA-MB-468 breast
# ASSAY_COMMENT: NCI-60 one-dose screen, 48 h
# EXPERIMENTAL_CONTEXT: 10 µM unless noted
About 83,000 compounds went through this panel and 20% of them were active in at least one assay; those are over-represented in the sample as a whole. Calls of active or inactive are those of the source. How the source made its calls: active means growth percent below 10; inactive means the rest.
Can you answer with just one of these options? True for active, False for inactive

O=C(O)c1ccc2c(c1)nc(Nc1cccc(Cl)c1)c1ccncc12: True
COC(=O)c1nc(-c2ccccc2)oc1S(=O)(=O)N1CCCC(C)C1 (configuration not stated): False
COc1ccc(/C=C/c2nc(Nc3ccc(Cl)cc3)c3ccccc3n2)cc1: False
Cc1ccc2sc3c(c2c1)Oc1nc[nH]c(=O)c1C3c1cccc(F)c1 (configuration not stated): False
CN(C)c1ccc2cc(-c3ccc(Cl)c(Cl)c3)c(N)nc2c1: False
CCCCN(CCCC)Cc1c(C)[nH]c2cc(OC)ccc2c1=O: False
CCCCC/C(=C\c1ccccc1)C1OC(C)C(C)O1 (configuration not stated): False
O=S1(=O)NCCN1CCNc1nccc(-c2c(-c3cccc(O)c3)nc3sccn23)n1: False
COc1ccc(-c2cnc3c(-c4cccc5ncccc45)cnn3c2)cc1: False
O=C(/C=C/c1cccc(Cl)c1)c1ccc(O)c(CN2CCN(c3cc4c(cc3F)c(=O)c(C(=O)O)cn4C3CC3)CC2)c1: False

q: What call does the record list for O=C1NC(=O)C(Cc2ccccc2)(Cc2ccccc2)N1 ?
a: False

q: What call does the record list for COCCNC(C)=O ?
a: False

q: What call does the record list for NC(N)=Nc1ccc(Oc2cccc(NC(N)=Nc3ccc(Br)c(C(F)(F)F)c3)c2)cc1 ?
a: True

q: What call does the record list for COc1ccc(CN2C(=O)/C(=C\c3cc(OC)c(OC)c(OC)c3)c3ccccc32)cc1 ?
a: True

q: What call does the record list for CCCCCCCCO ?
a: False

q: What call does the record list for Oc1ccc(CSc2nnc(-c3cnccn3)o2)c2cccnc12 ?
a: True

q: What call does the record list for N#CCCCCCn1c2ccccc2c2c3[nH]c(=O)[nH]c(=O)c3c3c4ccccc4n(CCCCCC#N)c3c21 ?
a: False

q: What call does the record list for CC(=O)c1nn(-c2ccc(C)cc2)cc1C(=O)c1cc2c(ccc3ccccc32)oc1=O ?
a: False

q: What call does the record list for CN1C2CCC1/C(=C\c1ccc(Cl)cc1)C(=O)/C2=C/c1ccc(Cl)cc1 ?
a: False

q: What call does the record list for O=C1OC(/C=C/c2ccccc2)=NC/1=C/c1ccccc1[N+](=O)[O-] ?
a: False

q: What call does the record list for Cc1nn(-c2ccccc2)c(Oc2c(Cl)cccc2Cl)c1/C=N/N=c1\sc2ccccc2n1C ?
a: False

q: What call does the record list for COc1ccc(Cc2nc(C#N)c(N3CCN(c4ccc(F)cc4)CC3)o2)cc1 ?
a: False

###

# System: MDA-MB-468 breast
# ASSAY_COMMENT: NCI-60 one-dose screen, 48 h
# EXPERIMENTAL_CONTEXT: 10 µM unless noted
The panel holds about 83,000 compounds, 20% with a hit somewhere; the sample as a whole holds those more often. The source made the active and inactive calls. The calls were made as follows: active = growth percent below 10; inactive = the rest.
Can you answer with just one of these options? 1 (active), -1 (inactive)

Cc1c2cnccc2c(C)c2c1c1cc(C(=O)O)ccc1n2C: 1

q: What call does the record list for NC(=O)c1ccc[n+]([C@@H]2O[C@H](COP(=O)([O-])OP(=O)(O)OC[C@H]3O[C@@H](n4cnc5c(N)ncnc54)[C@H](O)[C@@H]3O)[C@@H](O)[C@H]2O)c1 ?
a: -1

q: What call does the record list for Cc1ccc2[nH]c(=O)c3c(c2c1)Oc1ncn2nc(-c4ccco4)nc2c1C3c1ccc(Cl)cc1 (centres undefined) ?
a: -1

q: What call does the record list for COc1cc(/C=N\NC(=O)CN2CCN(c3cc4c(cc3F)c(=O)c(C(=O)N/N=C/c3cc(OC)c(OC)c(OC)c3)cn4C3CC3)CC2)cc(OC)c1OC ?
a: 1
